experimental protocol: Selectivity index, ratio of CC50 for MDBK cells to EC50 for BVDV
Type: functional
// reported Ratio CC50/EC50 per item

{"columns": ["test smiles", "Ratio CC50/EC50"],
 "data": [
  ["Cc1cccc(-c2nc3ccn(Cc4ccc(Br)cc4)cc-3n2)c1", 372],
  ["Clc1ccc(-c2nc3ccn(Cc4ccc(Br)cc4)cc-3n2)cc1", ">47"],
  ["Brc1ccc(Cn2ccc3nc(-c4ccc(Br)s4)nc-3c2)cc1", ">55"],
  ["Fc1ccccc1-c1nc2ccn(Cc3ccc(Cl)cc3)cc-2n1", ">300"],
  ["Brc1ccc(Cn2ccc3nc(-c4ccc5ccccc5c4)nc-3c2)cc1", 259],
  ["Fc1ccccc1-c1nc2ccn(Cc3ccc(I)cc3)cc-2n1", ">478"],
  ["Brc1ccc(Cn2ccc3nc(CCCc4ccccc4)nc-3c2)cc1", 8],
  ["Cc1ccc(-c2nc3ccn(Cc4ccc(Br)cc4)cc-3n2)cc1", 53],
  ["COc1cccc(-c2nc3ccn(Cc4ccc(Br)cc4)cc-3n2)c1", ">660"],
  ["Brc1ccc(Cn2ccc3nc(-c4cccnc4)nc-3c2)cc1", ">206"],
  ["Brc1ccc(Cn2ccc3nc(-c4cccc(Br)c4)nc-3c2)cc1", ">300"],
  ["Brc1ccc(Cn2ccc3nc(-c4cccc5ccccc45)nc-3c2)cc1", 77],
  ["Brc1ccc(Cn2ccc3nc(-c4ccccc4Br)nc-3c2)cc1", ">66"],
  ["Fc1cccc(-c2nc3ccn(Cc4ccc(Br)cc4)cc-3n2)c1", ">825"],
  ["Cc1ccccc1-c1nc2ccn(Cc3ccc(Br)cc3)cc-2n1", ">541"],
  ["FC(F)(F)c1cccc(-c2nc3ccn(Cc4ccc(Br)cc4)cc-3n2)c1", ">72"],
  ["Clc1ccccc1-c1nc2ccn(Cc3ccc(Br)cc3)cc-2n1", ">100"],
  ["Clc1cccc(-c2nc3ccn(Cc4ccc(Br)cc4)cc-3n2)c1", ">220"],
  ["CCc1nc2ccn(Cc3ccc(Br)cc3)cc-2n1", ">87"],
  ["Brc1ccc(Cn2ccc3nc(-c4ccccn4)nc-3c2)cc1", 96],
  ["Brc1ccc(Cn2ccc3nc(-c4cccc(I)c4)nc-3c2)cc1", ">83"],
  ["Fc1ccc(-c2nc3ccn(Cc4ccc(Br)cc4)cc-3n2)cc1", ">194"],
  ["CN(C)c1cccc(-c2nc3ccn(Cc4ccc(Br)cc4)cc-3n2)c1", 171],
  ["Brc1ccc(Cn2ccc3nc(/C=C/c4ccccc4)nc-3c2)cc1", 88],
  ["Brc1ccc(Cn2ccc3nc(-c4ccncc4)nc-3c2)cc1", ">70"],
  ["Brc1ccc(Cn2ccc3nc(-c4cccs4)nc-3c2)cc1", ">825"]
]}

###

experimental protocol: Cytotoxicity against MDBK cells
Assay type: cell-based, Bos taurus
recorded conditions: cattle
// reported CC50 per item
readout: CC50

{"columns": ["test smiles", "assay value"],
 "data": [
  ["Brc1ccc(Cn2ccc3nc(-c4cccc5ccccc45)nc-3c2)cc1", "23 µM"],
  ["Cc1ccccc1-c1nc2ccn(Cc3ccc(Br)cc3)cc-2n1", "> 33 µM"],
  ["Brc1ccc(Cn2ccc3nc(-c4ccccn4)nc-3c2)cc1", "10 µM"],
  ["Brc1ccc(Cn2ccc3nc(-c4cccc(I)c4)nc-3c2)cc1", "> 33 µM"],
  ["Brc1ccc(Cn2ccc3nc(-c4cccs4)nc-3c2)cc1", "> 33 µM"],
  ["CCc1nc2ccn(Cc3ccc(Br)cc3)cc-2n1", "> 33 µM"],
  ["Brc1ccc(Cn2ccc3nc(-c4ccc5ccccc5c4)nc-3c2)cc1", "7 µM"],
  ["Clc1cccc(-c2nc3ccn(Cc4ccc(Br)cc4)cc-3n2)c1", "> 33 µM"],
  ["Brc1ccc(Cn2ccc3nc(-c4cccnc4)nc-3c2)cc1", "> 33 µM"]
]}

###

experimental protocol: Cytotoxicity against Huh 5-2 cells
Assay type: cell-based
recorded conditions: human
Decision: CC50 beneath 20 µM gives Yes; CC50 meeting or exceeding 20 µM gives No.

{"columns": ["test smiles", "category"],
 "data": [
  ["Cc1cccc(-c2nc3ccn(Cc4ccc(Br)cc4)cc-3n2)c1", "Yes"],
  ["Clc1cccc(-c2nc3ccn(Cc4ccc(Br)cc4)cc-3n2)c1", "No"],
  ["Brc1ccc(Cn2ccc3nc(-c4ccccn4)nc-3c2)cc1", "Yes"],
  ["Clc1ccc(-c2nc3ccn(Cc4ccc(Br)cc4)cc-3n2)cc1", "Yes"],
  ["Brc1ccc(Cn2ccc3nc(-c4cccs4)nc-3c2)cc1", "No"],
  ["Brc1ccc(Cn2ccc3nc(-c4cccc5ccccc45)nc-3c2)cc1", "Yes"],
  ["Cc1ccc(-c2nc3ccn(Cc4ccc(Br)cc4)cc-3n2)cc1", "Yes"],
  ["Fc1ccc(-c2nc3ccn(Cc4ccc(Br)cc4)cc-3n2)cc1", "No"],
  ["Fc1cccc(-c2nc3ccn(Cc4ccc(Br)cc4)cc-3n2)c1", "No"],
  ["Brc1ccc(Cn2ccc3nc(-c4ccc5ccccc5c4)nc-3c2)cc1", "Yes"],
  ["Fc1ccccc1-c1nc2ccn(Cc3ccc(Cl)cc3)cc-2n1", "No"]
]}

###

// reported CC50 per item
experimental protocol: Cytotoxicity against MDBK cells
Assay type: cell-based, Bos taurus
recorded conditions: cattle

{"columns": ["test smiles", "CC50"],
 "data": [
  ["Fc1cccc(-c2nc3ccn(Cc4ccc(Br)cc4)cc-3n2)c1", "> 33 µM"],
  ["Brc1ccc(Cn2ccc3nc(CSc4ccccc4)nc-3c2)cc1", "25 µM"],
  ["COc1cccc(-c2nc3ccn(Cc4ccc(Br)cc4)cc-3n2)c1", "> 33 µM"],
  ["CN(C)c1cccc(-c2nc3ccn(Cc4ccc(Br)cc4)cc-3n2)c1", "24 µM"],
  ["Brc1ccc(Cn2ccc3nc(CCCc4ccccc4)nc-3c2)cc1", "22 µM"],
  ["Brc1ccc(Cn2ccc3nc(Cc4ccccc4)nc-3c2)cc1", "> 33 µM"],
  ["Brc1ccc(Cn2ccc3nc(-c4ccccc4Br)nc-3c2)cc1", "> 33 µM"],
  ["Brc1ccc(Cn2ccc3nc(-c4cccc(Br)c4)nc-3c2)cc1", "> 33 µM"],
  ["Clc1ccccc1-c1nc2ccn(Cc3ccc(Br)cc3)cc-2n1", "> 33 µM"],
  ["Fc1ccccc1-c1nc2ccn(Cc3ccc(I)cc3)cc-2n1", "> 33 µM"],
  ["Clc1ccc(-c2nc3ccn(Cc4ccc(Br)cc4)cc-3n2)cc1", "> 33 µM"],
  ["Brc1ccc(Cn2ccc3nc(-c4ccc(Br)s4)nc-3c2)cc1", "> 33 µM"],
  ["Cc1cccc(-c2nc3ccn(Cc4ccc(Br)cc4)cc-3n2)c1", "23 µM"],
  ["Brc1ccc(Cn2ccc3nc(-c4ccncc4)nc-3c2)cc1", "> 33 µM"],
  ["Fc1ccc(-c2nc3ccn(Cc4ccc(Br)cc4)cc-3n2)cc1", "> 33 µM"],
  ["Cc1ccc(-c2nc3ccn(Cc4ccc(Br)cc4)cc-3n2)cc1", "21 µM"],
  ["Brc1ccc(Cn2ccc3nc(/C=C/c4ccccc4)nc-3c2)cc1", "14 µM"],
  ["Fc1ccccc1-c1nc2ccn(Cc3ccc(Cl)cc3)cc-2n1", "> 33 µM"],
  ["Brc1ccc(Cn2ccc3nc(-c4cc(Br)cc(Br)c4)nc-3c2)cc1", "> 33 µM"],
  ["FC(F)(F)c1cccc(-c2nc3ccn(Cc4ccc(Br)cc4)cc-3n2)c1", "> 33 µM"],
  ["Brc1ccc(Cn2ccc3nc(CCc4ccccc4)nc-3c2)cc1", "16 µM"],
  ["Brc1ccc(Cn2ccc3nc(CCCCc4ccccc4)nc-3c2)cc1", "5 µM"],
  ["Brc1ccc(Cn2ccc3nc(COc4ccccc4)nc-3c2)cc1", "> 33 µM"]
]}

###

experimental protocol: Selectivity index, ratio of CC50 for Huh 5-2 cells to EC50 for HCV
Type: functional
// reported Ratio CC50/EC50 per item

{"columns": ["test smiles", "Ratio CC50/EC50"],
 "data": [
  ["Brc1ccc(Cn2ccc3nc(-c4cccc(I)c4)nc-3c2)cc1", 2],
  ["FC(F)(F)c1cccc(-c2nc3ccn(Cc4ccc(Br)cc4)cc-3n2)c1", ">5"],
  ["COc1cccc(-c2nc3ccn(Cc4ccc(Br)cc4)cc-3n2)c1", 2],
  ["Brc1ccc(Cn2ccc3nc(-c4ccccc4Br)nc-3c2)cc1", 2],
  ["Brc1ccc(Cn2ccc3nc(-c4ccccn4)nc-3c2)cc1", 15],
  ["Brc1ccc(Cn2ccc3nc(-c4ccncc4)nc-3c2)cc1", 3],
  ["Brc1ccc(Cn2ccc3nc(CSc4ccccc4)nc-3c2)cc1", 2],
  ["Fc1ccccc1-c1nc2ccn(Cc3ccc(I)cc3)cc-2n1", 74]
]}
